Entry source: paper PMC6571060

Molecular target: PH domain of Cnk1 (Homo sapiens, UniProt Q969H4)
Sequence (Q969H4 403-502 limits assumed): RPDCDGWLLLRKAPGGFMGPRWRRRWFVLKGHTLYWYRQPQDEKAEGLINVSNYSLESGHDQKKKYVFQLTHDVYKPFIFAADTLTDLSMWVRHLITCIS
pKd: −log10 of the molar value.
Property measured: pKd

[[record]]
compound = "Cc1ccc(-c2csc(Cn3nc(CC4OCCCO4)c4ccccc4c3=O)n2)cc1 [PHT-7.3]"
reported = 5.33

